Origin of the recorded values: paper PMC8647499

assayDetails: Quantification of compounds in mice plasma by LC-MS-MS and PK parameters after i.v. injection
Assay type: in vivo
protocolConditions: Balb/C, mouse, in vivo, iv, 25 mg/kg, Ave. Conc. in plasma
What concentration at 24 h was measured for each of the following?
Quick reminder: number only, in nM, skip the unit.

[in] // concentration at 24 h lookup, key: C/C1=C\[C@H](C)C(=O)C[C@@H](O)/C(C)=C/[C@H](C)C[C@@H](C)CC[C@@H]([C@@H](C)C(=O)O)OC(=O)[C@@H](C)C1 [Strasseriolide C, strasseriolide C]
[out] 3.54

[in] // concentration at 24 h lookup, key: C/C1=C\[C@H](C)[C@@H](O)C[C@@H](O)/C(C)=C/[C@H](C)C[C@@H](C)CC[C@@H]([C@@H](C)C(=O)O)OC(=O)[C@@H](C)C1 [Strasseriolide D, strasseriolide D]
[out] 107
